Molecular target: HCV E1E2 antigen, isolate CH35 (hepatitis C virus, isolate CH35)
Assay: ELISA, Fab on E1E2 antigen
Measured parameter: OD 450 nm (OD 450 nm)

| Binder | Obs value |
| --- | --- |
| Fab N4 (Fab, V domains shown) VH: VQLLEQSGPEVKKPGDSLRISCKMSGDSLVTTWIGWVRQKPGQGLEWMGIINPGDSSTNIYPGDSATRYGPSFQGQVTISIDKSTSTAYLQWNNVKASDTGIYYCARHVPVPISGTFLWREREMHDFGYFDDWGQGTLVIVSS VL: ELTLTQSPGTLSLSPGERATLSCRASQSVSNNYLAWYQQKPGQAPRLLIYGASSRATGIPDRFSGSGSGTGFTLIISRLEPEDFAVYYCQQYGSSSITFGQGTRLEIKR | 1.03 |
| Fab R1 (Fab, V domains shown) VH: VQLLEQSGAEVKKPGASVKVSCKASGYTFSIYGVAWVRQAPGQGLEWMGWISPQNGDTHSPQKFQGRLTMTTDTSTSTAYMELRSLRSDDTAVYFCARDYGVNFGGGSEHNLDYWGRGTRVTVSS VL: ELTQSPLSLPVTPGEPASISCRSSYSLLHINGYKYLDWYLQRPGQSPQLLIYLGSNRAPGVPDRFSGSGSGTSFTLKISRVEAEDVGVYYCMQSLQAPWTFGQGTKVEMKR | 0.15 |
| Fab P1a (Fab, V domains shown) VH: EVQLLESGGGVVQPGGSLRLSCAASGFTFTSFTMHWVRQAPGKGLEWVALISHDGSNKDYADSVRGRFTVSRDNSKKMVYLQMSSLRPDDAAVYYCARGGPAYYTYSDTLTGYHNVVGDYWGQGTLVTVSS VL: ELTQSPGTLSLSPGERATLSCRTSQSVSSTYLAWYQQKPGQPPRLLIYGASNRAPGIPDRFSGSGSGTDFTLTISRLEPEDFAVYYCQQYGDSPPITFGQGTRLDIKR | 0.08 |
| Fab V1 (Fab, V domains shown) VH: VQLLEQSGAEVQKPGASVKVSCKPSGYIFTNFGISWVRQAPGQGLEWMAWINTYNGKTTYAQSLQGRVTLTTDPYTNTVFMELRSLRSDDTAVYYCARENEGEYVWGHFRSDYWGQGTLVTVSS VL: ELTQSPSSLSASVGDRVTITCQASQDISNFLNWYQRRPGKAPNLLIYDATHLETGVPSRFSGSGFGTHFTLTINSLQPEDIGTYYCQHFDDVPSFTFGPGTKVDLKR | 0.77 |
| Fab P1 (Fab, V domains shown) VH: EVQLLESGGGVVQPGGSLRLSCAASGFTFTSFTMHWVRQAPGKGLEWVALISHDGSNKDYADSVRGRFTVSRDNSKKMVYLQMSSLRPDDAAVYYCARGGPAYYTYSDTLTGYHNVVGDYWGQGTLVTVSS VL: ELTQSPGTLSLSPGERATLSCRASQVRGFLAWFQQKPGQAPRLLIYGASNRAPGIPDRFSGSGSGTDFTLTISRLEPEDFAVYYCQQYGDSPPITFGQGTRLEIKR | 0.27 |
| Fab N1 (Fab, V domains shown) VH: VQLLEQSGPEVKKPGDSLRISCKMSGDSLVTTWIGWVRQKPGQGLEWMGIINPGDSSTNIYPGDSATRYGPSFQGQVTISIDKSTSTAYLQWNAVKPSDTGIYYCARHVPVPISGTFLWREREMHDFGYFDDWGQGTLVIVSS VL: ELTQSPGTLSLSPGERATLSCRASQSVSSSYLAWYQQKPGQAPRLLIYGASNRAAGIPDRFSGSGSGADFTLTISRLEPEDFAVYYCQQYGSSLITFGQGTRLEIKR | 0.59 |
